# Tested on: COLO 205
# Experiment Notes: Antitumor activity against human COLO205 cells assessed as cell growth inhibition at 10 uM incubated for 48 hrs by sulforhodamine B assay
# Format: functional
# Test Parameters: read-out: GI
Endpoint: inhibition of growth at 10 µM (%)

# Chemical Structure, Subject Of Test, Number
rows = [
    ("Cc1ccc(-c2cn3nc(N)c(/N=N/c4ccc(S(N)(=O)=O)cc4)c3[nH]2)cc1", "COLO 205", 24),
    ("Cc1ccc(-c2nc3c(/N=N/c4ccc(S(N)(=O)=O)cc4)c(N)nn3c(N)c2C#N)cc1", "COLO 205", 86),
    ("Nc1nn2cc(-c3ccccc3)[nH]c2c1/N=N/c1ccc(S(N)(=O)=O)cc1", "COLO 205", 55),
]
